Task for the reader: assign each of the following sequences its reported gcPBM binding intensity (ln).
Test system: PfHDP1 homeodomain (GST-tagged)
assaySummary: gcPBM binding intensity (ln(normalized median fluorescence intensity)); higher = stronger DNA binding
The full ranking holds about 25,000 sequences; the median of “ln(normalized median fluorescence intensity)” is about 6.7, and the highest 2% start at about 10. The sample holds the highest values, similar sequences and a random draw of the others, so the mix is not that of the screen.
Please respond with just the number, no unit label.

Give gcPBM binding intensity (ln) for this entry on PfHDP1 homeodomain (GST-tagged): CAGGTGCACTATATTACACACGCTTCTTTTTTTTTA [CACACA_site2069]
11

Give gcPBM binding intensity (ln) for this entry on PfHDP1 homeodomain (GST-tagged): TTACACATGTATTTGGTGCATGTTGTTAACAAAATA
9.83

Give gcPBM binding intensity (ln) for this entry on PfHDP1 homeodomain (GST-tagged): TAAAAATATATACATACATGCATACATATATATGTA [TGCATGCA_site774]
6.47

Give gcPBM binding intensity (ln) for this entry on PfHDP1 homeodomain (GST-tagged): TATGTATATATATTAACACACAAAAAAAAAAAAAAA [CACACA_site1812]
6.2

Give gcPBM binding intensity (ln) for this entry on PfHDP1 homeodomain (GST-tagged): TTTAAGAATTAACGGGGTACAATTCTTAAATATATA [XGTACX_site669]
6.33

Give gcPBM binding intensity (ln) for this entry on PfHDP1 homeodomain (GST-tagged): ATACATTTATTGTATTGTACATAATATTATATATTC [XGTACX_site7115]
6.55

Give gcPBM binding intensity (ln) for this entry on PfHDP1 homeodomain (GST-tagged): ATAAAATATATATATATAAAAATAAATACATAAATA [GTGCAC_negctrl_site157]
6.31

Give gcPBM binding intensity (ln) for this entry on PfHDP1 homeodomain (GST-tagged): AATAAATTAAAACAGGTGCACTATATTACACACGCT
9.7

Give gcPBM binding intensity (ln) for this entry on PfHDP1 homeodomain (GST-tagged): ATTTATTTATACAAAGTGCAATATTTTGTTAAAGTC [GTGCAC_site9618]
8.15

Give gcPBM binding intensity (ln) for this entry on PfHDP1 homeodomain (GST-tagged): TTTTCTGTATATTGTGTGCACACAATTAACAAAAAA [GTGCAC_site9817]
10.6

Give gcPBM binding intensity (ln) for this entry on PfHDP1 homeodomain (GST-tagged): TTTTTTTTTTTTGGTGCATGCACATTTTGTTTTTTT [TGCATGCA_site570]
10

Give gcPBM binding intensity (ln) for this entry on PfHDP1 homeodomain (GST-tagged): TATCATTGTTCATGCTTGCACTTTTGTTACTGTTCC [GTGCAC_site9425]
6.75

Give gcPBM binding intensity (ln) for this entry on PfHDP1 homeodomain (GST-tagged): TATATATAAGCGTGTACACATTCTGAGTGTTGTATA [CACACA_site4502]
7.02

Give gcPBM binding intensity (ln) for this entry on PfHDP1 homeodomain (GST-tagged): ATAAAATATAAAAACGCACACAATTATAAGGGTGTA [CACACA_site177]
6.96

Give gcPBM binding intensity (ln) for this entry on PfHDP1 homeodomain (GST-tagged): ATATATATATATATTACACACTTTTTCTTTTTTTTT [CACACA_site2780]
9.01

Give gcPBM binding intensity (ln) for this entry on PfHDP1 homeodomain (GST-tagged): AAACATAAAGAAAAAAAAAATATATATTTATTTATT [GTGCAC_negctrl_site357]
6.33

Give gcPBM binding intensity (ln) for this entry on PfHDP1 homeodomain (GST-tagged): TTCTGTATACGGTGTGCACACAATTAAAAAAAAAAA [CACACA_site1416]
10.8
